# Experimental system: human Claudin18.2 (human)
# Procedure text: cell-based or functional assay
Field: CDC EC50. Provide a value for each of the binders that follow.
One number for each entry, in µg/mL.

Binder	CDC EC50 (µg/mL)
273F3D4 (antibody, V domains shown) VH: QVQLKESGPGLVAPSQSLSITCTVSGFALTTYGVSWVRQPPGKGLEWLGVIWGDGSTHYHSALISRLSIRKDNSKSQVFLKLNSLQTDDTATYYCAKPGRGNAMDYWGQGTSVTVSS VL: DIVMSQSPSSLTVTAGEKVTMSCKSSQSLLNSGNQKNYLTWYQQKPGQSPKLLIYWASTRESGVPDRFTGSGSGTDFTLTISSMQAEDLAVYYCQNDYIYPLTFGAGTMLELK	1.56

The binder listed as 406F11G8 (antibody, V domains shown) VH: DVQLVESGGGLVQPGGSRKLSCAASGFTFSSFGMHWVRQAPEKGLEWVAYISSGSSPIYYADTVKGRFTISRDNSKNTLFLQMTSLRSEDTAMYFCARIYYGNSFAYWGQGTLVTVSA VL: DIVMTQSPSSLTVTAGEKVAMSCKSSQTLLNSGNQKNYLTWYQQKPGQPPKLLIYWASTRESGVPDRFTGSGSGTDFTLTISSVQAEDLAVYYCQNAYYYPLTFGSGTKLELK has a reported CDC EC50 of 2.57

Data credit: patent US20220073643A1
